System: pERK in NCI-H358 cells
assay.text: Cell-based pERK HTRF assay (pERK inhibition in H358 cells)
reported.conditions: pERK inhibition IC50, NCI-H358 cells, 30 min incubation; read-out: PERK in H358 cell

{"columns": ["compound", "IC50"],
 "data": [
  ["C=CC(=O)N1CC[C@@H](N(c2nc(OC[C@@]34CCCN3C[C@H](F)C4)nc3c(F)c(-c4ccc(F)c5sc(N)nc45)c(C(F)(F)F)cc23)C2CC2)C1 (single isomer, unassigned) [Compound 236]", "< 0.1 µM"],
  ["C=CC(=O)N1CCC[C@@H](N(C)c2nc(OC[C@@]34CCCN3C[C@H](F)C4)nc3c(F)c(-c4ccc(F)c5sc(N)nc45)c(Cl)cc23)C1 (atropisomer, axis not shown)", "0.1 to 1 µM"],
  ["C=CC(=O)N1C[C@H](C)N(c2nc(OC[C@@]34CCCN3C[C@H](OC)C4)nc3c(F)c(-c4ccc(F)c5sc(N)nc45)c(C(F)(F)F)cc23)C[C@H]1C", "< 0.1 µM"]
]}

----------
System: pERK in NCI-H358 cells
assay.text: Cell-based pERK HTRF assay (pERK inhibition in H358 cells)
reported.conditions: pERK inhibition IC50, NCI-H358 cells, 30 min incubation; read-out: PERK in H358 cell
IC50 values by entry

{"columns": ["compound", "IC50"],
 "data": [
  ["C=CC(=O)N1CC[C@@H](N(C)c2nc(OC[C@@]34CCCN3C[C@H](F)C4)nc3c(F)c(-c4ccc(F)c5sc(N)c(C#N)c45)c(C(F)(F)F)cc23)[C@H]1C (single isomer, unassigned) [Compound 435]", "> 1000 nM"],
  ["C=CC(=O)N1CC[C@@H](N(C)c2nc(OCC34CCCN3CCC4)nc3c(F)c(-c4ccc(F)c5sc(N)nc45)c(C(F)(F)F)cc23)C1 (atropisomer, axis not shown) [Compound 222]", "100 to 1000 nM"],
  ["C=CC(=O)N1C[C@H](N(C)c2ncnc3c(F)c(-c4ccc(F)c5sc(N)nc45)c(C(F)(F)F)cc23)C[C@H]1C (atropisomer, axis not shown) [Compound 250]", "100 to 1000 nM"],
  ["C=CC(=O)N1CC[C@@H](N(C)c2nc(OC[C@]34CCCN3C[C@H](OC)C4)nc3c(F)c(-c4ccc(F)c5sc(N)nc45)c(C(F)(F)F)cc23)C1 (atropisomer, axis not shown)", "100 to 1000 nM"],
  ["C=CC(=O)N1C[C@H](N(C)c2ncnc3c(F)c(-c4ccc(F)c5sc(N)nc45)c(C(F)(F)F)cc23)C2(CC2)C1 (atropisomer, axis not shown)", "> 1000 nM"],
  ["C=CC(=O)N1C[C@H](N(C)c2ncnc3c(F)c(-c4ccc(F)c5sc(N)nc45)c(C(F)(F)F)cc23)C[C@H]1C (atropisomer, axis not shown) [Compound 251]", "> 1000 nM"]
]}
